Source listed as PubChem BioAssay (NCI).

tested on: NCI-H322M lung; test: NCI-60 one-dose screen, 48 h (100 = growth as untreated, 0 = no growth, -100 = all killed); conditions: 10 µM unless noted
This is part of a sample that, as a whole, favours compounds with a hit. Of some 83,000 tested, about 20% had one in any assay.
measured-endpoint: growth (%)
Form entry: value (%) — number only.

Some entries whose results are on file:
molecule	reported-measurement
COc1ccc(-c2nc3cc(C)ccc3n2CC(=O)N=Nc2c(O)[nH]c3ccc(OC)cc23)cc1	-4.47
COc1ccc(C(=O)/C=C/c2c(F)cccc2Cl)cc1S(N)(=O)=O	17.4
CN1CCN(Cc2ccc(C(=O)Nc3cccc(C#Cc4cccc5[nH]nc(N)c45)c3)cc2C(F)(F)F)CC1	-98.3
COc1ccc(/C=C/c2nc3ccccc3c(=O)n2CC(=O)Nc2ccc(OC)cc2)cc1	83.3

**Q:** What does the record list as growth for COc1ccc2c(c1)c(-c1cc(N)n3nc(-c4cn(C)c5ccccc45)cc3n1)cn2C ?
**A:** -42.2

**Q:** Quick one: N#Cc1c(-c2ccc(Cl)cc2)nc2n[nH]c(-c3ccc(Cl)cc3)c2c1-c1cccs1
**A:** 76.8

**Q:** Quick one: CC1(C)CC[C@]2(C(=O)O)CC[C@]3(C)C(=CCC4[C@@]5(C)C[C@@H](O)[C@@H]6OC(c7ccccc7F)OC[C@@]6(C)C5CC[C@]43C)C2C1 (stereo partly drawn)
**A:** 13.5

**Q:** Quick one: COc1cc(CNC(=O)/C=C/c2ccc3c(c2)OCO3)ccc1OCc1cn(-c2ccc([N+](=O)[O-])cc2)nn1
**A:** 91.5
